The compounds listed here are annotated with their TGI.
# Test system: HOP-62 NSCLC
# run-description: NCI tumour cell line growth inhibition, 48 h
Reply with just the number (in µM).

compound: CCCCNc1ccc(Nc2ccccc2)cc1
TGI [µM]: 71.4

compound: Clc1ccc(C[P+](c2ccccc2)(c2ccccc2)c2ccccc2)cc1Cl
TGI [µM]: 21.2

compound: O=C1c2cccnc2C(=O)c2c1c(C(=O)OCCCN1CCCCC1)c1ccccn21
TGI [µM]: 0.0203

For the next question, use this compound.
Inquiry: Could you tell me which TGI is on file for COC(=O)C(C(=O)OC)C(Br)C(Br)C(Br)c1ccccc1 (stereo not given) ?
Reply text: 36

###

The compounds listed here are annotated with their GI50.
# Test system: HT29 colon
# run-description: NCI tumour cell line growth inhibition, 48 h

These solved cases illustrate the format of a correct answer.
smiles-string: NC1(Cc2ccc(Cl)cc2)CCN(c2ncnc3[nH]ccc23)CC1
GI50: 3.7 µM
--
smiles-string: CN(C)c1ccc(/C=N/S(=O)(=O)c2ccc(-n3c(-c4ccccc4)nc4c(Br)cc(Br)cc4c3=O)cc2)cc1
GI50: 42.5 µM
--
smiles-string: O=C1/C(=C/c2ccc(O)cc2)COc2ccc(O)c(O)c21
GI50: 3.52 µM
--
smiles-string: COc1ccc(C(=O)c2sc3nc(-c4cccs4)ccc3c2N)cc1OC
GI50: 3.65 µM

For the next question, use this compound.
Inquiry: Could you tell me which GI50 is on file for COc1cc(C)c2sc3ccccc3c(=O)c2c1NCCN(C)C ?
Reply text: 2.62 µM

###

# Test system: HOP-92 NSCLC
# run-description: NCI tumour cell line growth inhibition, 48 h
measure-name: TGI

These solved cases illustrate the format of a correct answer.
molecule: C=Cn1c([N+](=O)[O-])cnc1/C=C/c1ccc(C(=O)OCCN2CCOCC2)cc1
reported: > 100 µM

molecule: COC1CC(N)C(O)C(C)O1 (stereo not drawn)
reported: > 100 µM

molecule: CN(C)c1cccc(F)c1C(=O)NC(=O)Nc1ccc(Cl)cc1
reported: > 100 µM

molecule: CC(C)C1=CC(=O)[C@@](C)(C2[C@H](O)C[C@@]3(C)[C@@H]4CC=C5[C@@H](CC[C@@H](OC6OCC(O)C(O)C6OC6OC(C)C(O)C(O)C6O)C5(C)C)[C@]4(C)C(=O)C[C@]23C)O1 (stereo partly drawn)
reported: > 100 µM

molecule: CC1=CP(=O)(c2c(C(C)C)cc(C(C)C)cc2C(C)C)CCC1Cl (stereo not drawn)
reported: 31 µM

molecule: CCC(C)C(=O)OCC(=O)c1ccc(-c2ccccc2)cc1 (stereo not drawn)
reported: > 100 µM

molecule: C/C(=N\O)c1cccc[n+]1Cc1ccccc1
reported: > 100 µM

For the next question, use this molecule.
Inquiry: Could you tell me which TGI is on file for CN(CCc1ccccn1)C(=S)N/N=C(\c1ccccc1)c1ccccn1 ?
Reply text: 3.59 µM

###

The compounds listed here are annotated with their TGI.
# Test system: UACC-257 melanoma
# run-description: NCI tumour cell line growth inhibition, 48 h

These solved cases illustrate the format of a correct answer.
compound: CSc1nc(N)c2c(-c3ccccc3)c3c(nc2n1)CCCC3
TGI: > 100 µM

compound: CC1OC(OC2C(O[C@H]3CC[C@@]4(C)C(=CC[C@H]5[C@@H]6C[C@@H]7O[C@]8(CC[C@@H](C)CO8)[C@@H](C)[C@@H]7[C@@]6(C)CC[C@@H]54)C3)OC(CO)C(O)C2O)C(O)C(O)C1O (stereo partly drawn)
TGI: 4.9 µM

compound: C=Cn1c([N+](=O)[O-])cnc1/C=C/c1ccc(C(=O)OCCN2CCOCC2)cc1
TGI: > 100 µM

compound: COc1cc2c(cc1OC)C(=O)/C(=C/c1cc(C)cc(C)c1)C2
TGI: > 100 µM

compound: COC(=O)Nc1nc2ccc(S(=O)(=O)N3CCOCC3)cc2[nH]1
TGI: > 100 µM

Inquiry: Could you tell me which TGI is on file for C=C1C(=O)O[C@H]2C[C@@H]1[C@@H](O)[C@H](O)[C@@H](C)CCCC(C)=CCC[C@@]2(C)O ?
Reply text: 36.4 µM

Inquiry: Same question for CC(C)=CC(=O)c1[nH]c2ccccc2c1CC(=O)NCCc1cncn1C please.
Reply text: > 100 µM

Inquiry: Same question for OCCN(CCO)c1cccc(N(CCO)CCO)n1 please.
Reply text: > 100 µM

Inquiry: Same question for O=c1cccc(-c2cccc(=O)[nH]2)[nH]1 please.
Reply text: > 100 µM

Inquiry: Same question for N#CC1=C(O)NC(O)=C(C#N)C1c1ccc(C2C(C#N)=C(O)NC(O)=C2C#N)cc1 please.
Reply text: > 100 µM

Inquiry: Same question for COc1cccc(SSc2cccc(OC)c2C(=O)O)c1C(=O)O please.
Reply text: > 100 µM

Inquiry: Same question for Cl.Fc1c[c-]c(-c2ccccn2)c(F)c1.[Pt].c1ccc([PH+](C[PH+](c2ccccc2)c2ccccc2)c2ccccc2)cc1 please.
Reply text: 0.829 µM

Inquiry: Same question for CC([O-])=C1C(=O)c2ccccc2C1=O.CC([O-])=C1C(=O)c2ccccc2C1=O.CC[O-].CC[O-].[Ti+4] please.
Reply text: > 100 µM

Inquiry: Same question for OC1COC2CC(Nc3ccccn3)OC12 (stereo not drawn) please.
Reply text: > 100 µM

Inquiry: Same question for O=c1c(Cc2ccc(Cl)cc2)nnc2sc(-c3ccc(-c4ccc(Cl)cc4Cl)o3)nn12 please.
Reply text: > 100 µM

Inquiry: Same question for CC1OC2OC3C(OCC(O)C3O)OC(=O)[C@]34CCC(C)(C)CC3C3=CCC5[C@@]6(C)C[C@H](O)[C@H](OC7OC(CO)C(O)C(O)C7OC7OCC(OC(=O)CC(C)(O)CC(=O)OC1C(O)C2O)C(O)C7O)[C@@](C)(CO)C6CC[C@@]5(C)[C@]3(C)CC4 (stereo partly drawn) please.
Reply text: 6.69 µM

Inquiry: Same question for Cn1c(=O)c2c(nc3sc4ccccc4c(=O)n32)n(C)c1=O please.
Reply text: > 100 µM

Inquiry: Same question for O=C(O)c1nc2ccc(C(F)(F)F)cc2nc1Nc1ccc(F)cc1 please.
Reply text: 78.1 µM

Inquiry: Same question for O=c1[nH]cnc2c(COCCO)c[nH]c12 please.
Reply text: > 100 µM

###

# Tested on: HCT-15 colon
# run-description: NCI tumour cell line growth inhibition, 48 h
measure-name: TGI

These solved cases illustrate the format of a correct answer.
compound: COC(=O)C1(SC)C2CCC3C2CCC31 (stereo unspecified)
TGI: > 100 µM

compound: O=C1CCCCC12CCC/C2=N\O (stereo unspecified)
TGI: > 100 µM

compound: CC(=O)NC1=NC(=O)/C(=C/c2ccc(/C=C3/C(=O)N=C(NC(C)=O)N3C)cc2)N1C
TGI: > 100 µM

compound: Cc1ccc2c(c1)nc1n2C(N)=Nc2ccccc2S1
TGI: > 100 µM

compound: O=c1[nH]c(NCc2ccc(Cl)cc2)nc2nc[nH]c12
TGI: > 100 µM

compound: O=c1c(Cc2ccc(Cl)cc2)nnc2sc(-c3ccc(-c4ccc(Cl)cc4Cl)o3)nn12
TGI: > 100 µM

Inquiry: Could you tell me which TGI is on file for O=[N+]([O-])c1cc([N+](=O)[O-])c(Cl)cc1Cl ?
Reply text: 3.73 µM

Inquiry: Same question for CCC1(CN(C)C)CC/C(=C\c2ccc(OC)c(OC)c2)C1=O (stereo unspecified) please.
Reply text: > 100 µM

Inquiry: Same question for NC(Cc1ccc2nc3c4ccccc4c(=O)cc-3oc2c1)C(=O)O (stereo unspecified) please.
Reply text: > 100 µM

###

The molecules listed here are annotated with their TGI.
# Test system: XF 498 CNS
# run-description: NCI tumour cell line growth inhibition, 48 h
Reply with just the number (in µM).

These solved cases illustrate the format of a correct answer.
smiles-string: CC(=O)c1ccc(NC(=O)COC(=O)c2cccc3c(=O)c4ccccc4[nH]c23)cc1
TGI / µM: 55.5

smiles-string: NC(=S)N1N=C2c3ccccc3CC[C@H]2[C@@H]1c1ccc(Cl)cc1
TGI / µM: 60.6

smiles-string: C#CCN(Cc1ccc2nc(-c3ccccc3)c(N)nc2c1)c1cc(OC)c(OC)c(OC)c1
TGI / µM: 59.5

For the next question, use this molecule.
Inquiry: Could you tell me which TGI is on file for CCCCCCCCCCCc1c(O)c(=O)c2c(oc3c(=O)c(CCCCCCCCCCC)c(O)c(=O)c3n2-c2ccc(N(C)C)cc2)c1=O ?
Reply text: 37.9

###

# Tested on: NCI-H226 lung
# run-description: NCI tumour cell line growth inhibition, 48 h
The molecules listed here are annotated with their TGI.

These solved cases illustrate the format of a correct answer.
molecule: CC(C)=CC(=O)c1[nH]c2ccccc2c1CC(=O)NCCc1cncn1C
TGI: > 100 µM
--
molecule: CCN1C(=NCCO)NS(=O)(=O)c2ccccc21
TGI: > 100 µM
--
molecule: O=C(O)/C=C/c1c[nH]c(=O)[nH]c1=O
TGI: > 500 µM

Inquiry: Could you tell me which TGI is on file for CC(=O)/C=C/c1ccc(OCc2ccc(Cl)cc2)cc1 ?
Reply text: > 1000 µM

Inquiry: Same question for O=C(/C(=C\I)c1ccccc1)c1ccccc1 please.
Reply text: 53.5 µM

Inquiry: Same question for CCCCOP(C)(=O)C(NC(=O)OCC)(C(F)(F)F)C(F)(F)F (stereo unspecified) please.
Reply text: > 100 µM

Inquiry: Same question for O=C(Cn1c(C(=O)c2ccccc2)nc2ccccc21)c1ccccc1 please.
Reply text: > 100 µM

Inquiry: Same question for O=C1C(c2c(O)[nH]c3ccc(Br)cc23)=Nc2ccc(Br)cc21 please.
Reply text: > 100 µM

Inquiry: Same question for CCSC[C@@H]1C[C@](O)(c2ccc(F)cc2)[C@@H](c2ccc(F)cc2)O1 please.
Reply text: 38.8 µM

Inquiry: Same question for Br[C@@H]1[C@H]2c3nc4ccccc4nc3[C@@H]1C[C@H]2Br please.
Reply text: 86.2 µM

Inquiry: Same question for COc1cccc(SSc2cccc(OC)c2C(=O)O)c1C(=O)O please.
Reply text: > 100 µM
